Reported ELISA OD 405 nm, Viral Lysate (native) by item:
target: SARS-HCoV spike protein (SARS-coronavirus (Tor-3 strain), UniProt P59594 14-1255); experiment: ELISA, native gradient purified virus coated at 32 ng/well
Record the value in OD 405 nm, omitting the unit from your answer.

Binder	Units	ELISA OD 405 nm, Viral Lysate (native)
F26G8 (antibody, V domains shown) VH: VQLLESGAELVKPGASVKVSCKASGYTFTSYWIHWVKQRPGQGLEWIGEINPSNGRTNYNGNFESKATLTVDKSSNTAYMHLSSLTYEDSAVYHCTRLDYWGQGTTLTVSS VL: ELVMTQSPASLSVITGKKVTIRCISNTDIDDDLNWSQLKAGEPPKLLISEGNIFSPGVPSRFSSSGNGTDFVFTIENTLSEDVANNYCFQSDNMPFTFGSGTKLEIKR	OD 405 nm	1.41

State the recorded ELISA OD 405 nm, Viral Lysate (native) for this entry: F26G19 (antibody, V domains shown) VH: EVQLEESGTVLARPGASVKMSCKASGYTFTTYRMHWIKQRPGQGLEWIGAIYPGNSDTTYNQKFKDKAKLTAVTSTSSAYMELSSLTNEDSAVYFCTREGIPQLLRTLDYWGQGTSVTVSS VL: DILMTQSPSSLSASLGERVSLTCRASQEISGYLSWLQEKPDGTIKRLIYAASTLDSGVPKRFSGSRSGSDYSLTISSLESEDFADYYCLQYVSYPWTFGGGTKLEIKR
1.5

State the recorded ELISA OD 405 nm, Viral Lysate (native) for this entry: F26G18 (antibody, V domains shown) VH: LVQLEESGTVLPRPGASVKMSCKASGYTFTSYWMHWVKQRPGQGLEWIGAIYPGNSDTNYNQKFKGRATLTAVTSTSTASMELSSLTNEDSAVYYCTRDGYGSLYYYAMDFWGQGTSVTVSS VL: ELVMTQSPSSLSASLGDRVTISCRASQDISNYLNWYQQKPDGTVKLLIYYTSRLHAGVPSRFSGSGSGTDYSLTISNLEQEDIATYFCQQGYTLPYTFGGGTKLEIKR
1.81

State the recorded ELISA OD 405 nm, Viral Lysate (native) for this entry: F26G6 (antibody, V domains shown) VH: QVQLQQPGAELVKPGASVKVSCKASGYTFTNYWIHWVKQRPGQGLEWIGEINPGNGRTNYNGNFMNKATLTVDKSSNTAYMQLSSLTSEDSAVYHCARLDYWGQGTTLTVSS VL: ELVMTQSPASLSVATGKKVTIRCISSTDIDDDMNWYQQKAGKPPKLLISEGNIFSPGVPSRFSSSGNGTDFVFTVENTLSEDVADNYCLQSDNMPFTFGSGTKLGIKR
1.6
